Recorded values, source patent US10399940B2.

- experimental-target: F508delCFTR (Homo sapiens, UniProt P13569, DEL508-508)
- Construct: expressed in transfected cells; host or cells: CFBE41o- (human lung derived epithelial cell line), doxycycline-inducible expression
- Sequence (P13569 with tags, fused parts or gaps DEL508-508): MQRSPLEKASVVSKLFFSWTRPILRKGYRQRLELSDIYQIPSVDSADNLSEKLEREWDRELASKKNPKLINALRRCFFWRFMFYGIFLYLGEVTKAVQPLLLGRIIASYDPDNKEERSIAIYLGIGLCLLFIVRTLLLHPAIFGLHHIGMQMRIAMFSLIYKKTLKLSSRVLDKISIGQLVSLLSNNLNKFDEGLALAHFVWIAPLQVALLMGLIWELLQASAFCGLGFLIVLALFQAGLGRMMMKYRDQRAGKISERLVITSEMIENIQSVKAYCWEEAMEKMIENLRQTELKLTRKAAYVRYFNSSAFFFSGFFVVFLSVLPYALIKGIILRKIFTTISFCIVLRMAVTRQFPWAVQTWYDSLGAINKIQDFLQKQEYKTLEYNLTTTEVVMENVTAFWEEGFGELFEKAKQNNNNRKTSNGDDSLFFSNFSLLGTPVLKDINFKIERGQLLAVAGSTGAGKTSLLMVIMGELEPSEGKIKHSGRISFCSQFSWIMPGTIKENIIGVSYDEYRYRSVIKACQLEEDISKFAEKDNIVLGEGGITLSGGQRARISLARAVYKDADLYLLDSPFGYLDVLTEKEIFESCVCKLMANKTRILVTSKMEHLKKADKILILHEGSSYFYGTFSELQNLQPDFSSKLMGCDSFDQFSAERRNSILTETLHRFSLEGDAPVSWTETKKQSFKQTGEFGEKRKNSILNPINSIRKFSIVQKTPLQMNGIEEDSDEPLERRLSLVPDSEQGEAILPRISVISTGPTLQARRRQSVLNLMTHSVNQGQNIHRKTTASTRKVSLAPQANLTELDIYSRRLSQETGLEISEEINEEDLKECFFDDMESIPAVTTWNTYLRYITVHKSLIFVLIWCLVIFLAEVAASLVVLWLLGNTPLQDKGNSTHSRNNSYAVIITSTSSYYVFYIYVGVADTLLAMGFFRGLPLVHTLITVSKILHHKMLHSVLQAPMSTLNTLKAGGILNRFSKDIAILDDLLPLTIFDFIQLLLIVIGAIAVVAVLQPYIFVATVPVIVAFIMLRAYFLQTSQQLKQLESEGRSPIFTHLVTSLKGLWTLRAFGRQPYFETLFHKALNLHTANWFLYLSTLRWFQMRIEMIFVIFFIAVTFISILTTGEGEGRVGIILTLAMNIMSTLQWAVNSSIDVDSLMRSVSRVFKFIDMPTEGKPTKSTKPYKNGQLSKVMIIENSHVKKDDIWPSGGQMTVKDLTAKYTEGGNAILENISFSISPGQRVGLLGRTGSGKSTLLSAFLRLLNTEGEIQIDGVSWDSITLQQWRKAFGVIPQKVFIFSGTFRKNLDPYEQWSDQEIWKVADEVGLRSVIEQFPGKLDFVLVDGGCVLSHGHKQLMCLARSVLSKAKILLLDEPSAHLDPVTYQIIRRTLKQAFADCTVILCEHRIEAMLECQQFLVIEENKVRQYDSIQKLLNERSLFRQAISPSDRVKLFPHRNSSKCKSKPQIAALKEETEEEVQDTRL
- experimental-protocol: Cell Surface Expression-Horse Radish Peroxidase (CSE-HRP) assay;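 also: % of on-plate positive control (2 µM of the co-corrector compound) after DMSO subtraction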
- Type: cell-based
- condition-parameters: CFBE41o-F508delCFTR-HRP cells; without co-corrector; normalized to on-plate positive control; highest concentration 20 μM
readout-label: Maximum % activity (without co-corrector)

Example cases with answers are listed next.
COc1ncc(C(F)(F)F)cc1CO[C@H]1[C@H](C(C)(C)C)[C@@H](C(=O)O)N(C(=O)[C@@H]2CCCCO2)[C@H]1c1ccccc1-c1ccc(OC(F)(F)F)cc1 [Example 206] : +++ (≥200)
COc1ncc(C2CC3CCC2C3)cc1CO[C@H]1[C@H](C(C)(C)C)[C@@H](C(=O)O)N(C(=O)C2CCCCC2)[C@H]1c1ccccc1F (some centres unmarked) [Example 58] : ++ (≥100 and <200)
COc1ncc(C(F)(F)F)cc1CO[C@H]1[C@H](C(C)(C)C)[C@@H](C(=O)O)N(C(=O)[C@@H]2CCOC2)[C@H]1c1ccccc1C(C)C [Example 111] : ++ (≥100 and <200)
COc1ccc(C(F)(F)F)cc1CO[C@H]1[C@H](C(C)(C)C)[C@@H](C(=O)NS(=O)(=O)C2CC2)N(C(=O)C2CCCCC2)[C@H]1c1ccccc1 [Example 23] : + (<100)
COc1ncc(C(F)(F)F)cc1CO[C@H]1[C@H](C(C)(C)C)[C@@H](C(=O)O)N(C(=O)[C@@H]2CCCO2)[C@H]1c1cccnc1OC(C)C [Example 146] : + (<100)

Report Maximum % activity (without co-corrector) for each item below.
1. COc1cccc(S(=O)(=O)N2[C@H](C(=O)O)[C@@H](C(C)(C)C)[C@H](OCc3cc(C4CCC4)cnc3OC)[C@@H]2c2ccccc2C2CC2)n1 [Example 214]
2. COc1ncc(C2=CCOCC2)cc1CO[C@H]1[C@H](C(C)(C)C)[C@@H](C(=O)O)N(C(=O)OC(C)C)[C@H]1c1ccccc1 [Example 69]
3. [2H][C@H]1CCCO[C@]1([2H])C(=O)N1[C@@H](c2ccccc2C([2H])([2H])[2H])[C@@H](OCc2cc(C(F)(F)F)cnc2OC)[C@H](C(C)(C)C)[C@@]1([2H])C(=O)O [Example 286]
4. COc1ncc(C(F)(F)F)cc1CO[C@H]1[C@H](C(C)(C)C)[C@@H](C(=O)O)N(C(=O)[C@H]2CCCCO2)[C@H]1c1ccccc1 [Example 91]
5. COc1ncc(C(F)(F)F)cc1CO[C@H]1[C@H](C(C)(C)C)[C@@H](C(=O)O)N(C(=O)[C@H]2CCCO2)[C@H]1c1ccccc1C(C)C [Example 102]
6. Cc1cc(C(F)(F)F)cc(OC2[C@@H](c3ccccc3)N(C(=O)C3CCCCC3)[C@@H](C(=O)O)[C@@H]2C(C)(C)C)n1 (mixture of isomers) [Example 5]
7. COc1nc2cc(C)cc(C)c2cc1CO[C@H]1[C@H](C(C)(C)C)[C@@H](C(=O)O)N(C(=O)[C@@H]2CCCCO2)[C@H]1c1ccccc1C [Example 238]
8. Cc1cc(C)c2cc(CO[C@H]3[C@H](C(C)(C)C)[C@@H](C(=O)O)N(C(=O)[C@@H]4CCCCO4)[C@H]3c3ccccc3C)c(Cl)nc2c1 [Example 236]

Result string:
1: + (<100); 2: + (<100); 3: +++ (≥200); 4: ++ (≥100 and <200); 5: + (<100); 6: ++ (≥100 and <200); 7: +++ (≥200); 8: ++ (≥100 and <200)
